Data provenance: paper PMC6347521

tested on: Hep3B human hepatoma cell line; experiment: cells; type: cell-based; conditions: read-out: IC50 Calcein AM
Readout kind: IC50

Give the measured IC50 of O=C([O-])CC(O)(CC(=O)[O-])C(=O)[O-].[Na+].[Na+].[Na+] [Sodium citrate] .
> 1400 µM

* * *

tested on: Hep3B human hepatoma cell line; assay: cells; format: cell-based; conditions: Homo sapiens, Hep3B, 48 h, read-out: IC50 Hoechst
Readout kind: pIC50
On this scale, pIC50 is minus log10 of a concentration expressed in M (mol/L).

Record excerpt, results attached:
>>> assay_value("CC[C@H](C)C(=O)O[C@H]1C[C@@H](C)C=C2C=C[C@H](C)[C@H](CC[C@@H]3C[C@@H](O)CC(=O)O3)[C@H]21")
3.73
>>> assay_value("CC1=CC(=O)c2ccccc2C1=O")
4.70

Next molecule, pIC50 to be filled in.
What value of pIC50 has been reported for the following molecule? "C=C(C)[C@H]1Cc2c(ccc3c2O[C@@H]2COc4cc(OC)c(OC)cc4[C@@H]2C3=O)O1"
5.52
